Test: Aqueous solubility of the compound in 0.1 M Na2HPO4 solution at pH 7.4 incubated for 24 hrs by HPLC analysis
Format: physicochemical
Measurement context: 0.1 M Na2HPO4 solution, pH 7.4
Each entry below carries its reported solubility at 24 h.
The reply must contain the numeric value and, after it, the unit.

compound=CC[C@@]1(OC(=O)NCCOCCO[C@@H]2O[C@H](COC(C)=O)[C@H](OC(C)=O)[C@H](OC(C)=O)[C@H]2OC(C)=O)C(=O)OCc2c1cc1n(c2=O)Cc2cc3ccccc3nc2-1 measured_quantity="solubility at 24 h" experimental_value="500 µg/mL"

Incoming: Fill blank: measured solubility at 24 h of the compound "CC[C@@]1(OC(=O)NCCOCCO[C@@H]2O[C@H](CO)[C@@H](O)[C@H](OC(N)=O)[C@@H]2O)C(=O)OCc2c1cc1n(c2=O)Cc2cc3ccccc3nc2-1" is ____.
Outgoing: 16300 µg/mL

---

Test: Stability of compound in 10% phosphate buffer assessed as proportion of lactone form level at pH 7.4 measured after 48 hrs by HPLC analysis
Assay type: physicochemical
Measurement context: read-out: Drug metabolism
Measured quantity: remaining at 48 h (%)
Just the number in %, nothing appended.

compound=CC[C@@]1(OC(=O)NCCOCCO[C@@H]2O[C@H](COC(C)=O)[C@H](OC(C)=O)[C@H](OC(C)=O)[C@H]2OC(C)=O)C(=O)OCc2c1cc1n(c2=O)Cc2cc3ccccc3nc2-1 experimental_value=91
compound=CC[C@@]1(O)C(=O)OCc2c1cc1n(c2=O)Cc2cc3ccccc3nc2-1 experimental_value=5

Would you kindly look at the next entry?
Incoming: Request the reported remaining at 48 h associated with "CC[C@@]1(OC(=O)NCCOCCO[C@@H]2O[C@H](CO)[C@@H](O)[C@H](OC(N)=O)[C@@H]2O)C(=O)OCc2c1cc1n(c2=O)Cc2cc3ccccc3nc2-1"
Outgoing: 92

---

Tested on: SW1990
Test: Antitumor activity against human SW1990 cells assessed as inhibition of cell growth measured after 48 hrs by MTT assay
Type: functional, cell-based
Measurement context: SW1990, 48 h
Attribute: IC50
# output: bare number, implied unit µM

compound=CC[C@@]1(OC(=O)NCCOCCOCCO[C@@H]2O[C@H](COC(C)=O)[C@@H](OC(C)=O)[C@H](OC(C)=O)[C@H]2OC(C)=O)C(=O)OCc2c1cc1n(c2=O)Cc2cc3ccccc3nc2-1 measured_quantity=IC50 units_symbol=µM experimental_value=4.5

Incoming: // lookup IC50 for "CC[C@@]1(OC(=O)NCCOCCOCCO[C@@H]2O[C@H](CO)[C@@H](O)[C@H](O)[C@H]2O)C(=O)OCc2c1cc1n(c2=O)Cc2cc3ccccc3nc2-1"
Outgoing: 12.5

Incoming: Please report the recorded IC50 for "CC[C@@]1(OC(=O)NCCOCCO[C@@H]2O[C@H](COC(C)=O)[C@@H](OC(C)=O)[C@H](OC(C)=O)[C@@H]2O[C@H]2O[C@H](COC(C)=O)[C@@H](OC(C)=O)[C@H](OC(N)=O)[C@H]2OC(C)=O)C(=O)OCc2c1cc1n(c2=O)Cc2cc3ccccc3nc2-1" .
Outgoing: 11.3

---

Test system: SW1990
Test: Antitumor activity against human SW1990 cells assessed as inhibition of cell growth measured after 48 hrs by MTT assay
Type: functional, cell-based
Measurement context: SW1990, 48 h
Measured quantity: pIC50
# pIC50 = -log10(concentration in molar units)

Incoming: Please provide the recorded pIC50 for "CC[C@@]1(OC(=O)NCCOCCO[C@@H]2O[C@H](COC(C)=O)[C@@H](OC(C)=O)[C@H](OC(N)=O)[C@@H]2OC(C)=O)C(=O)OCc2c1cc1n(c2=O)Cc2cc3ccccc3nc2-1" , tested on SW1990.
Outgoing: 5.12

Incoming: Short answer please: pIC50, SW1990, entry "CC[C@@]1(OC(=O)NCCOCCOCCO[C@@H]2O[C@H](CO)[C@H](O)[C@H](O)[C@H]2O)C(=O)OCc2c1cc1n(c2=O)Cc2cc3ccccc3nc2-1"
Outgoing: 4.70

Incoming: Identify the measured pIC50 of "CC[C@@]1(OC(=O)NCCO[C@@H]2O[C@H](CO)[C@@H](O)[C@H](O)[C@@H]2O)C(=O)OCc2c1cc1n(c2=O)Cc2cc3ccccc3nc2-1" for SW1990.
Outgoing: 4.69
